Kindly supply the reported relative binding affinity values for the records listed here.
# assayedSystem: T1, human CD81 mutant V169L (human, UniProt P60033 1-236, limits assumed)
# T1 construct: as m30; not shown: C-terminal V5 and 6xHis tags
# T1 sequence: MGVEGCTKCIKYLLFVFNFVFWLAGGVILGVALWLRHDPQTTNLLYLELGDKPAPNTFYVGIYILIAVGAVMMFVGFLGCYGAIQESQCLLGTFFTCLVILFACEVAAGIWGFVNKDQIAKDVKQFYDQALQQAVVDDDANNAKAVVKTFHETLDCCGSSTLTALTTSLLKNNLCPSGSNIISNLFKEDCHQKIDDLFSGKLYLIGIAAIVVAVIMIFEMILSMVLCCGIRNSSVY
# measurementProtocol: ELISA

{"binder": "002-F05 (antibody, human IgG4 S228P, lambda, V domains shown, IgG4 S228P) VH: EVQLLESGGGLVQPGGSLRLSCAASGFTFSSNYMSWVRQAPGKGLEWVSYISSSSTYTDYADSVKGRFTISRDNSKNTLYLQMNSLRAEDTAVYYCARYSYGRDDFDYWGQGTLVTVSS VL: QSVLTQPASASGTPGQRVTISCTGSTSNIGAGYDTHWYQQLPGTAPKLLIYGNSNRPSGVPDRFSGSKSGTSASLAISGLRSEDEADYYCQSYDTNLNVWVFGGGTKLTVLG", "relative binding affinity": "< 20%"}

Next binder, please.
Incoming: I'd like to know its relative binding affinity. The binder in question is 002-C09 (antibody, human IgG4 S228P, lambda, V domains shown, IgG4 S228P) VH: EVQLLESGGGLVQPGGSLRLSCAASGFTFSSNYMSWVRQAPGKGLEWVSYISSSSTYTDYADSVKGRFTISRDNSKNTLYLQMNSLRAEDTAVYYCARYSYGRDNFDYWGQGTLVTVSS VL: QSVLTQPASASGTPGQRVTISCTGSTSNIGAGYGTHWYQRLPGTAPKLLIYGNSNRPSGVPDRFSGSKSGTSASLAISGLRSEDEADYYCQSYDTNLSGWVFGGGTKLTVLG
Outgoing: < 20%
